# ASSAY COMMENT: Log P measurement by HPLC on reversed phase columns (EEC directive 79/831 Annex V.A8; methods [a], [b], [c])
# Assay type: physicochemical
# STUDY CONDITIONS: method [b]: LC-UV, neutral range, 0.001 molar ammonium acetate solution in water and acetonitrile as eluent
VALUE TYPE: LogP

Would you please look over these solved cases?
| COMPOUND | LogP |
| --- | --- |
| CCN(C)C=Nc1cc(C)c(Oc2ccccc2C)cc1OC [Example 15] | 5.53^[b] |
| CCN(C)C=Nc1cc(OC)c(Oc2ccccc2)cc1C [Example 31] | 3.93^[b] |
| Cc1cc(N=CN(C)C)c(Cl)cc1Oc1ccccc1Br [Example 37] | 4.47^[b] |
| CCc1cc(Oc2ccccc2)c(Br)cc1N=CN(C)C [Example 35] | 4.29^[b] |

For each of the items listed, what is its LogP?
1. CCN(C)C=Nc1cc(I)c(Oc2ccccc2)cc1C [Example 30]
2. CCN(C)C=Nc1cc(C)c(Oc2ccccc2Br)cc1Cl [Example 29]
3. CCN(C)C=Nc1cc(Br)c(Oc2ccccc2)cc1C [Example 36]
4. Cc1cc(Oc2ccccc2)c(I)cc1N=CN(C)C [Example 32]
5. Cc1cc(Oc2ccc(F)cc2)c(C)cc1N=CN(C)C(C)C [Example 4]
6. CCN(C)C=Nc1cc(C)c(Oc2ccccc2)cc1C#N [Example 13]

5.01^[b]
4.93^[b]
4.79^[b]
4.51^[b]
5.63^[b]
3.78^[b]

# lookup: LogP of CCN(C)C=Nc1cc(C)c(Oc2ccccc2F)cc1OC [Example 14]
4.33^[b]
